Assay Remarks: Rat PK study #4 (Compound A PO 0.2 and 1.0 mg/kg, propylene glycol formulation)
Format: in vivo, Lewis rats
Experimental Setup: male, Lewis, rat, plasma, po, 0.2 mg/kg, Lewis rats, PO 0.2 mg/kg, propylene glycol-based formulation, 4 h, mean of 3 animals

Compound: Cn1cc(-c2ccccc2)c(-c2cn(C)c(=O)c3[nH]c(-c4cnn(C(F)(F)F)c4)cc23)cc1=O [Compound A]
concentration at 4 h, ng/mL: 6.11

###

Assay Remarks: Dog PK study #4 (Compound A PO daily 14 days, 1/3/10 mg/kg; toxicokinetics, platelet counts)
Format: in vivo, beagle dogs
Experimental Setup: beagle, dog, plasma, oral; after daily administration for 14 days, 10 mg/kg, Female, 8 h

Compound: Cn1cc(-c2ccccc2)c(-c2cn(C)c(=O)c3[nH]c(-c4cnn(C(F)(F)F)c4)cc23)cc1=O [Compound A]
concentration at 8 h, ng/mL: 342

###

System Under Test: BRD4 BD2 (Homo sapiens, UniProt O60885)
Construct: HEK293 cells were transfected using NanoLuc-BRD4-BD1 or NanoLuc-BRD4-BD2 fusion vectors
Assay Remarks: NanoBRET bromodomain assay, NanoLuc-BRD4-BD2 in HEK293 cells
Each entry below carries its reported IC50.

Test Smiles: Cn1cc(-c2ccccc2)c(-c2cn(C)c(=O)c3[nH]c(-c4ccc(S(C)(=O)=O)cc4)cc23)cc1=O
System Under Test: BRD4 BD2 (Homo sapiens, UniProt O60885)
IC50: < 10 nM
--
Test Smiles: Cn1cc(-c2cccc(CS(C)(=O)=O)c2)c(-c2cn(C)c(=O)c3[nH]c(-c4ccc(F)cc4F)cc23)cc1=O
System Under Test: BRD4 BD2 (Homo sapiens, UniProt O60885)
IC50: 50 to 200 nM
--
Test Smiles: CN1CCC(n2cc(-c3ccccc3)c(-c3cn(C)c(=O)c4[nH]c(-c5cnn(C(F)(F)F)c5)cc34)cc2=O)CC1
System Under Test: BRD4 BD2 (Homo sapiens, UniProt O60885)
IC50: < 10 nM
--
Test Smiles: Cn1cc(-c2cccc(CN3CCOCC3)c2)c(-c2cn(C)c(=O)c3[nH]c(-c4ccc(F)cc4F)cc23)cc1=O
System Under Test: BRD4 BD2 (Homo sapiens, UniProt O60885)
IC50: 10 to 50 nM

###

Assay Remarks: Dog PK study #1 (Compound A IV and PO, propylene glycol formulation)
Assay type: in vivo, beagle dogs
Experimental Setup: beagle, dog, plasma, iv, 1 mg/kg, IV 1 mg/kg; mean; read-out: Vss—obs

Compound: Cn1cc(-c2ccccc2)c(-c2cn(C)c(=O)c3[nH]c(-c4cnn(C(F)(F)F)c4)cc23)cc1=O [Compound A]
Vd, L/kg: 1.2

###

Assay Remarks: Rat PK study #4 (Compound A PO 0.2 and 1.0 mg/kg, propylene glycol formulation)
Format: in vivo, Lewis rats
Experimental Setup: male, Lewis, rat, plasma, po, 0.2 mg/kg, Lewis rats, PO 0.2 mg/kg, propylene glycol-based formulation, 2 h, mean of 3 animals

Compound: Cn1cc(-c2ccccc2)c(-c2cn(C)c(=O)c3[nH]c(-c4cnn(C(F)(F)F)c4)cc23)cc1=O [Compound A]
concentration at 2 h [ng/mL]: 7.09

###

Assay Remarks: Dog PK study #3 (Compound A PO once daily 5 days, 5/10/20 mg/kg; PK, body weight, hematology)
Assay type: in vivo, beagle dogs
Experimental Setup: male, beagle, dog, plasma, po, 20 mg/kg, Day 5, 20 mg/kg dose PO; individual animals; read-out: Cmax
Experimental: For the third dog pharmacokinetic study, three solutions of different concentrations of Compound A were prepared in 5% DMSO/15% PEG-400/80% (10% VE-TPGS) as outlined in Table 2E. […] Body weight was recorded prior to dosing, and detailed clinical observations were made prior to dosing and throughout the study, as needed. […] The concentration of Compound A in the blood plasma was determined through LC-MS as previously described. […] The cell composition (hematology) of blood samples was analyzed at day 5. […]

Compound: Cn1cc(-c2ccccc2)c(-c2cn(C)c(=O)c3[nH]c(-c4cnn(C(F)(F)F)c4)cc23)cc1=O [Compound A]
Cmax (ng/mL): 3510

###

Assay Remarks: Rat PK study #4 (Compound A PO 0.2 and 1.0 mg/kg, propylene glycol formulation)
Type: in vivo, Lewis rats
Experimental Setup: male, Lewis, rat, plasma, po, 0.2 mg/kg, 0.2 mg/kg PO, propylene glycol-based formulation; mean

Molecule: Cn1cc(-c2ccccc2)c(-c2cn(C)c(=O)c3[nH]c(-c4cnn(C(F)(F)F)c4)cc23)cc1=O [Compound A]
Measurement Units: ng·h/mL
AUC(0-t): 67.9

###

Assay Remarks: Dog PK study #4 (Compound A PO daily 14 days, 1/3/10 mg/kg; toxicokinetics, platelet counts)
Assay type: in vivo, beagle dogs
Experimental Setup: beagle, dog, plasma, oral; after daily administration for 14 days, 1 mg/kg, Female, 4 h

Compound: Cn1cc(-c2ccccc2)c(-c2cn(C)c(=O)c3[nH]c(-c4cnn(C(F)(F)F)c4)cc23)cc1=O [Compound A]
Measurement Units: ng/mL
concentration at 4 h: 55.9

###

Assay Remarks: Dog PK study #3 (Compound A PO once daily 5 days, 5/10/20 mg/kg; PK, body weight, hematology)
Format: in vivo, beagle dogs
Experimental Setup: male, beagle, dog, plasma, po, 10 mg/kg, Day 1, 10 mg/kg dose PO; individual animals; read-out: T½ (converted)
Procedure: For the third dog pharmacokinetic study, three solutions of different concentrations of Compound A were prepared in 5% DMSO/15% PEG-400/80% (10% VE-TPGS) as outlined in Table 2E. […] Body weight was recorded prior to dosing, and detailed clinical observations were made prior to dosing and throughout the study, as needed. […] The concentration of Compound A in the blood plasma was determined through LC-MS as previously described. […] The cell composition (hematology) of blood samples was analyzed at day 5. […]

Test Smiles: Cn1cc(-c2ccccc2)c(-c2cn(C)c(=O)c3[nH]c(-c4cnn(C(F)(F)F)c4)cc23)cc1=O
half-life / h: 5.24

###

Assay Remarks: Rat PK study #4 (Compound A PO 0.2 and 1.0 mg/kg, propylene glycol formulation)
Format: in vivo, Lewis rats
Experimental Setup: male, Lewis, rat, plasma, po, 1 mg/kg, 1 mg/kg PO, propylene glycol-based formulation; individual animals; read-out: MRTInf_obs
Measure: MRT inf

Test Smiles: Cn1cc(-c2ccccc2)c(-c2cn(C)c(=O)c3[nH]c(-c4cnn(C(F)(F)F)c4)cc23)cc1=O
Reported Value: 7.1 h

###

Assay Remarks: Rat PK study #1 (Compound A PO, methylcellulose vs propylene glycol formulation)
Type: in vivo, Lewis rats
Experimental Setup: male, Lewis, rat, plasma, po, 10 mg/kg, Lewis rats, PO 10 mg/kg, propylene glycol/Vitamin E TPGS/water formulation, 0.25 h, individual animals
Method: For the first rat pharmacokinetic study, the pharmacokinetics of Compound A were assessed in male Lewis rats. […] The Compound A solutions were administered to animals orally (PO) and animals were then monitored over a 24 h period. […] The concentration of Compound A in plasma samples was determined by liquid chromatography-mass spectrometry (LC-MS/MS) using a Shimadzu HPLC (DGU-20A5R; LC-30AD; SIL-30AC; Rack changer II; CTO-31A; and CBM-20A) and an AB API 5500 LC/MS/MS instrument. […]
Measure: concentration at 0.25 h (ng/mL)

Test Smiles: Cn1cc(-c2ccccc2)c(-c2cn(C)c(=O)c3[nH]c(-c4cnn(C(F)(F)F)c4)cc23)cc1=O
Measurement Units: ng/mL
Reported Value: 44.5

###

Assay Remarks: Dog PK study #3 (Compound A PO once daily 5 days, 5/10/20 mg/kg; PK, body weight, hematology)
Type: in vivo, beagle dogs
Experimental Setup: male, beagle, dog, plasma, po, 20 mg/kg, Day 5, 20 mg/kg dose PO; mean; read-out: MRT0-last
Measure: MRT last (h)

Molecule: Cn1cc(-c2ccccc2)c(-c2cn(C)c(=O)c3[nH]c(-c4cnn(C(F)(F)F)c4)cc23)cc1=O [Compound A]
Measure: MRT last
Reported Value: 6.3

###

Assay Remarks: Dog PK study #1 (Compound A IV and PO, propylene glycol formulation)
Type: in vivo, beagle dogs
Experimental Setup: beagle, dog, plasma, iv, 1 mg/kg, IV 1 mg/kg; individual animals
Measure: half-life (min)

Test Smiles: Cn1cc(-c2ccccc2)c(-c2cn(C)c(=O)c3[nH]c(-c4cnn(C(F)(F)F)c4)cc23)cc1=O
Measure: half-life
Reported Value: 316

###

Assay Remarks: Dog PK study #4 (Compound A PO daily 14 days, 1/3/10 mg/kg; toxicokinetics, platelet counts)
Format: in vivo, beagle dogs
Experimental Setup: beagle, dog, plasma, oral; after daily administration for 14 days, 10 mg/kg, Male, 8 h
Experimental: The different doses of compound A were orally administered to animals (n=2/group, one male and one female animal) daily for 14 days. Blood samples were collected at 0.5, 1, 2, 4, 8, and 24 hours after administration of Compound A on Day 14, and EDTA-K2 was used as an anticoagulant. […] The concentration of Compound A in the blood plasma was determined through liquid chromatography-mass spectrometry (LC-MS). […]
Measure: concentration at 8 h (ng/mL)

Test Smiles: Cn1cc(-c2ccccc2)c(-c2cn(C)c(=O)c3[nH]c(-c4cnn(C(F)(F)F)c4)cc23)cc1=O
Measurement Units: ng/mL
Reported Value: 646
